Where these numbers come from: patent US20240132484A1

Assign Screening data (Relative infection to DMSO controls) Average 5 μM to each entry below.
# Tested on: SARS2
# Assay type: cell-based, SARS-CoV-2
# settings: SARS2, 5 μM; 100=DMSO control
The answer should be a number; do not append a unit.

**Query** What measured Screening data (Relative infection to DMSO controls) Average 5 μM goes with Cc1ccc(CN(CCN(C)C)Cc2cc(C#CCO)cs2)s1 [SILCS1] ?
**Result** 119.79

**Query** Now the molecule OC(COc1c(CNCCc2ccccc2F)cccc1N1CCNCC1)CN1CCCC1 (stereo not drawn) [SILCS22]
**Result** 70.31

**Query** Try the molecule CC1=C(C(=O)NCC2CCC2)C(c2cccs2)NC(=O)N1 (stereo not drawn) [SILCS62]
**Result** 30.37

**Query** Same thing, different molecule: CCN(CC)CCN(Cc1ccc(C)o1)Cc1cccs1 [SILCS24]
**Result** 71.54

**Query** Please do the same for COc1ccc(C2NC(=O)NC(C)=C2C(=O)NCC2CCC2)cc1OC (stereo not drawn) [SILCS64] as well.
**Result** 33.52

**Query** Try the molecule CC1=C(C(=O)NCc2ccccc2)C(c2ccc(C)o2)NC(=O)N1 (stereo not drawn) [SILCS69]
**Result** 70.55

**Query** Please answer likewise for CN(C)CCN(Cc1ccsc1)Cc1cccc(-c2ccsc2)c1 [SILCS20]
**Result** 81.76

**Query** Query CCN(CC)CCN(Cc1cc(C)c(Br)s1)Cc1cc(C)c(Br)s1 [SILCS39] next
**Result** 51.83

**Query** Same again, this time with CCCCCCCCNC(=O)C1=C(C)NC(=O)NC1c1ccc(OC)c(OC)c1 (stereo not drawn) [SILCS65]
**Result** 57.87

**Query** Param item: CN1CCN(CC(O)COc2c(CNCCc3ccccc3F)cccc2C2CCCCC2)CC1 (stereo not drawn) [SILCS4]
**Result** 40.06

**Query** Queued: CN(C)CCN(Cc1ccsc1)Cc1ccco1 [SILCS12]
**Result** 109.01

**Query** Same question, CN(C)CCN(Cc1cocn1)Cc1cccs1 [SILCS35] this time
**Result** 112.05

**Query** For Cc1csc(CN(CCN(C)C)Cc2ccco2)c1 [SILCS17] then?
**Result** 113.50

**Query** And for CN1CCN(CC(O)COc2cccc(N3CCCCC3)c2CNCCc2ccccc2F)CC1 (stereo not drawn) [SILCS10] ?
**Result** 43.73

**Query** Also, COC(=O)c1csc(CN(CCN(C)C)Cc2ccsc2)c1 [SILCS31] please.
**Result** 94.99

**Query** Here is the next molecule: CC1=C(C(=O)NC2CCCCCC2)C(c2cccs2)NC(=O)N1 (stereo not drawn) [SILCS61]
**Result** 48.94

**Query** Subsequent entry: COc1ccc(-c2[nH]ncc2C(=O)NCC2CCC2)cc1OC [SILCS54]
**Result** 92.88

**Query** Now give it for COc1ccc(CNCCc2ccccc2F)c(OCC(O)CN2CCN(C)CC2)c1 (stereo not drawn) [SILCS45] too.
**Result** −1.00

**Query** Here is the next molecule: COc1ccc(C2NC(=O)NC(C)=C2C(=O)NCC2CCCCC2)cc1OC (stereo not drawn) [SILCS63]
**Result** 46.03

**Query** Ok, now COc1ccc(C2NC(=O)NC(C)=C2C(=O)NC2CCCCCC2)cc1OC (stereo not drawn) [SILCS59]
**Result** 66.80

**Query** Now consider CCN(CC)CCN(Cc1ccncc1)C(=O)c1cccs1 [SILCS38] and answer again.
**Result** 84.78

###

For each entry below, report its Screening data (Relative infection to DMSO controls) Average 25 μM value.
# System: SARS2
# Format: cell-based, SARS-CoV-2
# settings: SARS2, 25 μM; 100=DMSO control

**Query** Need Screening data (Relative infection to DMSO controls) Average 25 μM of Cc1ccc(CN(CCN(C)C)Cc2ccccc2)o1 , thanks.
**Result** 35.01

**Query** # iterate: COCC1=C(C(=O)NCC2CCC2)C(c2cccs2)NC(=O)N1 (centres unmarked)
**Result** 97.73

**Query** Param item: COc1ccc(C2NC(=O)NC(C)=C2C(=O)NCc2ccccc2)cc1OC (centres unmarked)
**Result** 100.34

**Query** And for COc1ccc(C2NC(=O)NC(C)=C2C(=O)NCC2CCC2)cc1OC (centres unmarked) ?
**Result** 130.68

**Query** And then CCN(CC)CCN(Cc1cccs1)C(=O)c1cccs1 , what is it?
**Result** 113.76

###

# System: cells (nuclei count)
# settings: average of Exp 1-3 (SMW475, SMW477, SMW478), n 9, 1 uM
Provide the recorded Toxicity Data, Average, Mean for the entries that follow.
All answers are understood in %, so give the number only.

**Query** Record lookup: for cells (nuclei count), what Toxicity Data, Average, Mean belongs to COC(=O)c1csc(CN(CCN(C)C)Cc2ccsc2)c1 ?
**Result** 113.44

**Query** Again, but for CCN(CC)CCN(Cc1ccccc1)Cc1ccccn1
**Result** 118.72

**Query** Same read-out for COC(=O)c1csc(CN(CCN(C)C)Cc2ccccc2)c1 ?
**Result** 108.24

**Query** Another compound to look at: CCN(CC)CCN(Cc1cccs1)C(=O)c1cccs1
**Result** 102.47

**Query** Similarly, CN(C)CCN(Cc1cocn1)Cc1cccs1 ?
**Result** 105.31

**Query** Also, COC(=O)c1csc(CN(CCN(C)C)Cc2cccs2)c1 please.
**Result** 104.12

**Query** And the next one, CCN(CC)CCN(Cc1ccccn1)Cc1ccc(C)o1 ?
**Result** 87.60

###

So I've got a bunch of compounds here, and I need their Relative cell count to DMSO controls, Average 25 μM values.
# Test system: cells (nuclei count)
# settings: 25 μM; toxicity data; 100=DMSO control
Reply: number alone, nothing else.

**Query** Request the reported Relative cell count to DMSO controls, Average 25 μM associated with Cc1ccc(CN(CCN(C)C)Cc2cc(C#CCO)cs2)s1
**Result** 116.28

**Query** Lookup CCN(CC)CCN(Cc1ccccn1)C(=O)c1cccs1
**Result** 104.07

**Query** Try Cc1ccc(CN(CCN(C)C)Cc2ccc(CO)o2)s1 next.
**Result** 104.32

**Query** Repeat with CN(C)CCN(Cc1ccsc1)Cc1cccc(-c2ccsc2)c1
**Result** 78.06

**Query** # iterate: Cc1cc(CN(CCN(C)C)Cc2ccncc2)sc1Br
**Result** 139.75

**Query** Now give it for Cc1ccc(CN(CCN(C)C)Cc2ccccc2)o1 too.
**Result** 105.91

**Query** For CC1=C(C(=O)NCC2CCCCC2)C(c2cc(C)c(Br)s2)NC(=O)N1 (centres unmarked) then?
**Result** 100.14

**Query** Continue with CN(C)CCN(Cc1ccsc1)Cc1ccc(CO)o1
**Result** 92.21

**Query** Also need CCN(CC)CCN(Cc1ccccc1)Cc1ccccn1 , thanks.
**Result** 85.8

**Query** And what about the compound CCN(CC)CCN(Cc1ccc(C)o1)Cc1cccs1 ?
**Result** 96.21

**Query** And then CC1=C(C(=O)NCC2CCC2)C(c2cccs2)NC(=O)N1 (centres unmarked) , what is it?
**Result** 106.51

###

# System: SARS2
# Assay type: cell-based, SARS-CoV-2
# settings: 25 uM; average of Exp 1-3 (SMW475, SMW477, SMW478); n 9
For each entry below, report its Infection Data: Average, Mean value.
Reply with just the number (in %).

**Query** For the molecule shown here, Cc1cc(CN(CCN(C)C)Cc2ccncc2)sc1Br , give the reported Infection Data: Average, Mean.
**Result** 14.65

**Query** Quick one: COc1ccc(CNCCc2ccccc2F)c(OCC(O)CN2CCN(C)CC2)c1 (racemic) [UMB18G]
**Result** 1.42

**Query** And the next one, CN(C)CCN(Cc1ccsc1)Cc1cccc(-c2ccsc2)c1 ?
**Result** 8.63

**Query** Subsequent entry: Cc1cc(CN(CCN(C)C)Cc2ccco2)sc1Br
**Result** 31.59

**Query** Quick one: Cc1csc(CN(CCN(C)C)Cc2ccco2)c1
**Result** 91.43

###

So I've got a bunch of compounds here, and I need their Infection Data, Average, Mean values.
# System: SARS2
# Assay type: cell-based, SARS-CoV-2
# settings: average of Exp 1-3 (SMW475, SMW477, SMW478), n 9, 5 uM
Numeric answer only, unit % assumed.

**Query** Given the compound COC(=O)c1csc(CN(CCN(C)C)Cc2cccs2)c1 [SILCS29] , what is its reported Infection Data, Average, Mean?
**Result** 64.83

**Query** Also need CN(C)CCN(Cc1cocn1)Cc1cccs1 [SILCS35] , thanks.
**Result** 112.05

**Query** Quick one: CCN(CC)CCN(Cc1cccs1)C(=O)c1cccs1 [SILCS34]
**Result** 112.81

**Query** Ok, now CCN(CC)CCN(Cc1ccccn1)Cc1ccc(C)o1 [SILCS36]
**Result** 111.84

**Query** Okay, and COC(=O)c1csc(CN(CCN(C)C)Cc2ccccc2)c1 [SILCS30] ?
**Result** 84.81

**Query** Lookup COC(=O)c1csc(CN(CCN(C)C)Cc2ccsc2)c1 [SILCS31]
**Result** 94.99

**Query** Then this compound: CCN(CC)CCN(Cc1ccccc1)Cc1ccccn1 [SILCS33]
**Result** 109.77
